These measurements were taken from the supplement of paper PMC9112550.

Assign shrunken log2 fold change to each entry below.
- Test system: Escherichia coli TOP10
- assay-info: shrunken log2 fold change of peptide-encoding DNA abundance (4.5 h post-induction vs induction); higher = less antimicrobial activity (less host growth inhibition)
- assay-setup: time post-induction: 4.5 h; library: site-saturation at positions 5, 18, 19, 20
Could you keep your reply to the number by itself?

Request: Value wanted: shrunken log2 fold change (Escherichia coli TOP10) of entry RRIRDRPPRLPRPRPRPFCEPRP
Result: 0.159

Request: Missing value: shrunken log2 fold change, Escherichia coli TOP10, entry RRIRNRPPRLPRPRPRPHVYPRP . Fill in?
Result: -0.229

Request: Provide the documented shrunken log2 fold change with Escherichia coli TOP10 as the system for RRIRKRPPRLPRPRPRPKFGPRP
Result: 0.0786

Request: Which shrunken log2 fold change is reported with Escherichia coli TOP10 for this entry: RRIRSRPPRLPRPRPRPTCCPRP ?
Result: 0.164

Request: Checklist item: shrunken log2 fold change tested on Escherichia coli TOP10, entry RRIRTRPPRLPRPRPRPAIVPRP , value?
Result: 0.00191

Request: # get_value(readout= shrunken log2 fold change, system= Escherichia coli TOP10) for RRIRYRPPRLPRPRPRPEWLPRP
Result: 0.00963

Request: shrunken log2 fold change, test system Escherichia coli TOP10, entry RRIRTRPPRLPRPRPRPSCSPRP
Result: -0.16

Request: Under Escherichia coli TOP10: shrunken log2 fold change value of RRIRKRPPRLPRPRPRPIRMPRP ?
Result: -0.0295

Request: For Escherichia coli TOP10, provide shrunken log2 fold change of RRIRIRPPRLPRPRPRPCHWPRP please.
Result: -0.0328

Request: Which shrunken log2 fold change is reported with Escherichia coli TOP10 for this entry: RRIRQRPPRLPRPRPRPNWHPRP ?
Result: 0.141

Request: For Escherichia coli TOP10, provide shrunken log2 fold change of RRIRSRPPRLPRPRPRPIYRPRP please.
Result: 0.0394

Request: Query for Escherichia coli TOP10: what shrunken log2 fold change does the record show for RRIRHRPPRLPRPRPRPNGPPRP ?
Result: -0.0992

Request: Hi! What's the reported shrunken log2 fold change for RRIRIRPPRLPRPRPRPESRPRP on Escherichia coli TOP10?
Result: 0.0553

Request: Lab note: need shrunken log2 fold change with Escherichia coli TOP10 for entry RRIRPRPPRLPRPRPRPCLCPRP , please look it up.
Result: -0.222

Request: Give Escherichia coli TOP10 shrunken log2 fold change for RRIRPRPPRLPRPRPRPCYKPRP
Result: -1.32

* * *

- Tested on: Escherichia coli TOP10;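 note: peptides expressed intracellularly from a pBAD plasmid library in pooled LB shake-flask culture, induced with 0.3% L-arabinose, DNA abundance read by NGS, three biological replicates, DESeq2 with apeglm shrinkage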
- assay-info: shrunken log2 fold change of peptide-encoding DNA abundance (4.5 h post-induction vs induction); higher = less antimicrobial activity (less host growth inhibition)
- assay-setup: time post-induction: 4.5 h; library: site-saturation at positions 5, 18, 19, 20
Record form. Attribute: shrunken log2 fold change. Fill in for each entry.
The reply should be a number, written without any unit.

Request: Give the measured shrunken log2 fold change of RRIRERPPRLPRPRPRPLPFPRP .
Result: -0.688

Request: For the sequence shown here, RRIRNRPPRLPRPRPRPGCNPRP , give the reported shrunken log2 fold change.
Result: -0.642

Request: Would you mind telling me what shrunken log2 fold change value was observed for RRIRWRPPRLPRPRPRPQMSPRP ?
Result: -0.149

Request: Would you mind telling me what shrunken log2 fold change value was observed for RRIRERPPRLPRPRPRPQEDPRP ?
Result: -0.0088

Request: Give the measured shrunken log2 fold change of RRIRHRPPRLPRPRPRPSCLPRP .
Result: -0.4

Request: I would be grateful if you could share the reported shrunken log2 fold change for RRIRNRPPRLPRPRPRPKDRPRP .
Result: -0.0176

Request: May I ask what shrunken log2 fold change has been recorded for RRIRQRPPRLPRPRPRPWAGPRP ?
Result: 0.0868

Request: Given the entry RRIRNRPPRLPRPRPRPSDHPRP , report its measured shrunken log2 fold change.
Result: -0.381

Request: // shrunken log2 fold change lookup, key: RRIRFRPPRLPRPRPRPPNHPRP
Result: -0.0407

Request: What measured shrunken log2 fold change goes with RRIRHRPPRLPRPRPRPEFNPRP ?
Result: 0.0664

Request: Reported shrunken log2 fold change for RRIRDRPPRLPRPRPRPYVVPRP : what is it?
Result: -0.159

Request: Find the recorded shrunken log2 fold change belonging to RRIRPRPPRLPRPRPRPHLHPRP and report it.
Result: -0.0768

Request: What shrunken log2 fold change value was documented for this sequence, RRIRERPPRLPRPRPRPTCGPRP ?
Result: 0.497

Request: Dear colleague, I am looking for the recorded shrunken log2 fold change of the following sequence: RRIRNRPPRLPRPRPRPAMFPRP
Result: -0.204

Request: Which shrunken log2 fold change value belongs to RRIRKRPPRLPRPRPRPDIYPRP ?
Result: 0.152

Request: Given the sequence RRIRYRPPRLPRPRPRPYPQPRP , what is its reported shrunken log2 fold change?
Result: -0.466

Request: # query: shrunken log2 fold change of entry RRIRMRPPRLPRPRPRPPRQPRP
Result: 1.43

Request: Look at this sequence and give its reported shrunken log2 fold change. RRIRRRPPRLPRPRPRPFMHPRP
Result: 0.0444

Request: Reported shrunken log2 fold change, sequence RRIRDRPPRLPRPRPRPPSKPRP : ____
Result: 0.0904

Request: Param item = RRIRARPPRLPRPRPRPGHVPRP ; retrieve measured shrunken log2 fold change.
Result: 0.0499

Request: Form field: reported shrunken log2 fold change of RRIRMRPPRLPRPRPRPDPWPRP
Result: 0.336

Request: Given the sequence RRIRDRPPRLPRPRPRPQHSPRP , what is its reported shrunken log2 fold change?
Result: -0.312

Request: // returns reported shrunken log2 fold change for input RRIRARPPRLPRPRPRPDMVPRP
Result: 0.308

Request: Please look up its shrunken log2 fold change: RRIRMRPPRLPRPRPRPKRYPRP
Result: 0.407

Request: Return reported shrunken log2 fold change; argument: RRIRWRPPRLPRPRPRPHTTPRP
Result: 0.0145

Request: Give its shrunken log2 fold change value. Item: RRIRVRPPRLPRPRPRPSFIPRP
Result: -0.749

Request: What measured shrunken log2 fold change goes with RRIRFRPPRLPRPRPRPGICPRP ?
Result: -0.0925

Request: Given RRIRRRPPRLPRPRPRPRDWPRP , state its recorded shrunken log2 fold change.
Result: 1.01

Request: Name the recorded shrunken log2 fold change for RRIRCRPPRLPRPRPRPVCIPRP .
Result: -0.499

Request: Returns the measured shrunken log2 fold change for the input sequence. Input: RRIRERPPRLPRPRPRPYSLPRP
Result: -0.0204

Request: What shrunken log2 fold change value was documented for this sequence, RRIRMRPPRLPRPRPRPPRRPRP ?
Result: 1.47

Request: If you can, please state the reported shrunken log2 fold change value of RRIRGRPPRLPRPRPRPAMYPRP .
Result: 0.369
